The following compounds are listed with their measured fold induction at 1 µM values.
Tested on: KAI1 promoter
Assay: KAI1 promoter luciferase reporter assay in transfected Caco2 cells
Format: cell-based, human
Details: Homo sapiens, Caco-2, 16 h, 1 μM compound, 16 hours, transfected Caco2 cells, luciferase activity relative to DMSO control (=1); read-out: Relative KAI promoter activity
Procedure: Experiments were conducted to evaluate the metastasis-related promoter activity-increasing effects of the compounds according to the present invention. Specifically, the KAI1 promoter reporter vector was used. In this case, the pRL-TK vector, a vector expressing renilla luciferase, was used as an internal control indicating the transfection efficiency in each transfected well. […]

>  <compound>
CC(C)CCNC(=O)COc1ccccc1C(=O)NCC(=O)c1ccccc1

>  <study system>
KAI1 promoter

>  <fold induction at 1 µM>
1.06

$$$$
>  <compound>
O=C(CNC(=O)c1ccc(CN2CCC(N3CCCCC3)CC2)cc1)c1ccccc1

>  <study system>
KAI1 promoter

>  <fold induction at 1 µM>
1.33

$$$$
>  <compound>
CC(Oc1ccccc1)C(=O)NCC(=O)c1cccnc1 (stereo not drawn)

>  <study system>
KAI1 promoter

>  <fold induction at 1 µM>
1.19

$$$$
>  <compound>
CN(Cc1ccc(C(=O)NCC(=O)c2ccccc2)cc1)c1ccccc1

>  <study system>
KAI1 promoter

>  <fold induction at 1 µM>
1.54

$$$$
>  <compound>
CC(C)N(C)Cc1ccc(C(=O)NCC(=O)c2ccccc2)cc1

>  <study system>
KAI1 promoter

>  <fold induction at 1 µM>
2.25

$$$$
>  <compound>
CCCCN(C)Cc1cccc(C(=O)NCC(=O)c2ccccc2)c1

>  <study system>
KAI1 promoter

>  <fold induction at 1 µM>
1.88

$$$$
>  <compound>
Cc1ccc(S(=O)(=O)NCC(=O)c2ccc(Cl)cc2)cc1

>  <study system>
KAI1 promoter

>  <fold induction at 1 µM>
0.88

$$$$
>  <compound>
O=C(CNS(=O)(=O)c1ccc(Cl)cc1)c1ccc(N2CCOCC2)cc1

>  <study system>
KAI1 promoter

>  <fold induction at 1 µM>
1.1

$$$$
>  <compound>
O=C(CNC(=O)c1cccc(CN2CCN(c3ccccn3)CC2)c1)c1ccccc1

>  <study system>
KAI1 promoter

>  <fold induction at 1 µM>
1.3

$$$$

---

Tested on: KAI1 promoter
Assay: KAI1 promoter luciferase reporter assay in transfected Caco2 cells
Type: cell-based, human
Conditions: Homo sapiens, Caco-2, 16 h, 1 μM compound, 16 hours, transfected Caco2 cells, luciferase activity relative to DMSO control (=1); read-out: Relative KAI promoter activity

>  <line notation>
COc1cccc(C(=O)CNC(=O)c2cccc(CN3CCc4ccccc4C3)c2)c1

>  <fold induction at 1 µM>
2.28

$$$$
>  <line notation>
O=C(CNC(=O)c1ccccc1F)c1ccc(Cl)cc1

>  <fold induction at 1 µM>
0.98

$$$$
>  <line notation>
C=CCN(CC=C)Cc1cccc(C(=O)NCC(=O)c2cccc(OC)c2)c1

>  <fold induction at 1 µM>
1.47

$$$$
>  <line notation>
CCCCN(CCO)Cc1ccc(C(=O)NCC(=O)c2ccccc2)cc1

>  <fold induction at 1 µM>
1.6

$$$$
>  <line notation>
O=C(CNC(=O)c1ccccc1OC1CCN(C(=O)c2ccc(F)cc2Cl)CC1)c1ccccc1

>  <fold induction at 1 µM>
1.01

$$$$
>  <line notation>
O=C(CNC(=O)c1ccccc1OC1CCN(C(=O)C2CCCCC2)CC1)c1ccccc1

>  <fold induction at 1 µM>
1.07

$$$$
>  <line notation>
CCN(Cc1ccc(C(=O)NCC(=O)c2ccccc2)cc1)c1ccccc1

>  <fold induction at 1 µM>
2.23

$$$$
>  <line notation>
CN(C)Cc1ccccc1C(=O)NCC(=O)c1ccccc1

>  <fold induction at 1 µM>
1.53

$$$$
>  <line notation>
Cc1ccccc1C(=O)NCC(=O)c1ccc(Cl)cc1

>  <fold induction at 1 µM>
1.81

$$$$

---

Entries annotated with measured fold induction at 1 µM
Tested on: KAI1 promoter
Experiment: KAI1 promoter luciferase reporter assay in transfected Caco2 cells
Type: cell-based, human
Conditions: Homo sapiens, Caco-2, 16 h, 1 μM compound, 16 hours, transfected Caco2 cells, luciferase activity relative to DMSO control (=1); read-out: Relative KAI promoter activity

>  <line notation>
C#CN(C)Cc1ccc(C(=O)NCC(=O)c2ccccc2)cc1

>  <fold induction at 1 µM>
6.85

$$$$
>  <line notation>
O=C(CNC(=O)c1ccc(F)c(F)c1)c1ccc(Cl)cc1

>  <fold induction at 1 µM>
0.9

$$$$
>  <line notation>
O=C(CNC(=O)c1ccc(CN2CCN(c3ccccn3)CC2)cc1)c1ccccc1

>  <fold induction at 1 µM>
1.91

$$$$
>  <line notation>
O=C(CNC(=O)c1ccccc1OC1CCN(C(=O)c2cccc(OC(F)(F)F)c2)CC1)c1ccccc1

>  <fold induction at 1 µM>
1.01

$$$$
>  <line notation>
Cc1cccc(C(=O)NCC(=O)c2ccc(N(C)C)cc2)c1

>  <fold induction at 1 µM>
2.64

$$$$

---

Test system: KAI1 promoter
Test: KAI1 promoter luciferase reporter assay in transfected Caco2 cells
Type: cell-based, human
Details: Homo sapiens, Caco-2, 16 h, 1 μM compound, 16 hours, transfected Caco2 cells, luciferase activity relative to DMSO control (=1); read-out: Relative KAI promoter activity
observation type: fold induction at 1 µM

>  <compound>
CCN(CC)Cc1cccc(C(=O)NCC(=O)c2ccccc2)c1 [Example 247]

>  <reported>
1.27

$$$$
>  <compound>
O=C(CNC(=O)c1ccco1)c1ccc(Cl)cc1 [Example 46]

>  <reported>
0.98

$$$$
>  <compound>
CCCc1ccc(NC(=O)COc2ccccc2C(=O)NCC(=O)c2ccccc2)cc1 [Example 213]

>  <reported>
1.14

$$$$
>  <compound>
COCC(=O)NCC(=O)c1ccc(Cl)cc1 [Example 65]

>  <reported>
0.84

$$$$
>  <compound>
CC(C)(C)CC(=O)N1CCC(Oc2ccccc2C(=O)NCC(=O)c2ccccc2)CC1 [Example 170]

>  <reported>
1.03

$$$$
>  <compound>
O=C(CNC(=O)c1ccccc1OC1CCN(C(=O)N2CCOCC2)CC1)c1ccccc1 [Example 171]

>  <reported>
1.07

$$$$
>  <compound>
O=C(CNC(=O)c1ccccc1OC1CCN(C(=O)c2ccc(OC(F)(F)F)cc2)CC1)c1ccccc1 [Example 199]

>  <reported>
0.97

$$$$
>  <compound>
CN(C)c1ccc(C(=O)CNC(=O)c2ccc(F)cc2)cc1 [Example 91]

>  <reported>
2.44

$$$$
>  <compound>
CCC(=O)NCC(=O)c1ccc(N2CCOCC2)cc1 [Example 142]

>  <reported>
1.12

$$$$
>  <compound>
COCc1ccccc1C(=O)N1CCC(Oc2ccccc2C(=O)NCC(=O)c2ccccc2)CC1 [Example 169]

>  <reported>
0.99

$$$$
>  <compound>
O=C(CNC(=O)c1ccccc1CN1CCCc2ccccc21)c1ccccc1 [Example 297]

>  <reported>
1.33

$$$$
>  <compound>
O=C(COc1ccccc1C(=O)NCC(=O)c1ccccc1)Nc1ccc2c(c1)OCO2 [Example 217]

>  <reported>
1.18

$$$$
>  <compound>
O=C(CNC(=O)c1ccccc1OC1CCN(C(=O)c2cccc(C(F)(F)F)c2)CC1)c1ccccc1 [Example 192]

>  <reported>
0.92

$$$$
>  <compound>
O=C(COc1ccccc1C(=O)NCC(=O)c1ccccc1)NCc1ccccc1 [Example 204]

>  <reported>
1.3

$$$$
>  <compound>
Cc1ccccc1C(=O)NCC(=O)c1ccccc1 [Example 11]

>  <reported>
1.82

$$$$
>  <compound>
C=CC(=O)NCC(=O)c1ccccc1 [Example 10, N-(2-oxo-2-phenylethyl) acrylamide]

>  <reported>
1.08

$$$$
>  <compound>
O=C(CNC(=O)c1cccc(Cl)c1)c1ccccc1 [Example 7]

>  <reported>
1.2

$$$$
>  <compound>
COc1cc(OC)cc(C(=O)NCC(=O)c2ccccc2)c1 [Example 42]

>  <reported>
1.12

$$$$
>  <compound>
O=C(CNC(=O)c1ccccc1CN1CCN(c2ccccn2)CC1)c1ccccc1 [Example 302]

>  <reported>
1.41

$$$$

---

Test system: KAI1 promoter
Test: KAI1 promoter luciferase reporter assay in transfected Caco2 cells
Type: cell-based, human
Conditions: Homo sapiens, Caco-2, 16 h, 1 μM compound, 16 hours, transfected Caco2 cells, luciferase activity relative to DMSO control (=1); read-out: Relative KAI promoter activity
Mark true (1) for reported fold induction at 1 µM of 1 or greater; mark false (0) for anything smaller.

>  <line notation>
O=C(CNC(=O)c1ccccc1OC1CCN(C(=O)c2ccc(Br)cc2)CC1)c1ccccc1

>  <study system>
KAI1 promoter

>  <class>
true (1)

$$$$
>  <line notation>
O=C(CNC(=O)c1ccc(C(F)(F)F)cc1)c1ccc(Cl)cc1

>  <study system>
KAI1 promoter

>  <class>
false (0)

$$$$
>  <line notation>
COc1ccc(S(=O)(=O)NCC(=O)c2ccc(N3CCOCC3)cc2)cc1

>  <study system>
KAI1 promoter

>  <class>
true (1)

$$$$
>  <line notation>
O=C(CNC(=O)C1CC1)c1ccc(Cl)cc1

>  <study system>
KAI1 promoter

>  <class>
false (0)

$$$$
>  <line notation>
CN(C)Cc1cccc(C(=O)NCC(=O)c2ccccc2)c1

>  <study system>
KAI1 promoter

>  <class>
true (1)

$$$$
>  <line notation>
Cc1cc(C)cc(C(=O)NCC(=O)c2ccc(N(C)C)cc2)c1

>  <study system>
KAI1 promoter

>  <class>
true (1)

$$$$
>  <line notation>
Cc1cccc(C(=O)NCC(=O)c2ccc(Cl)cc2)c1

>  <study system>
KAI1 promoter

>  <class>
true (1)

$$$$
>  <line notation>
CCCCCN(CCCCC)Cc1cccc(C(=O)NCC(=O)c2ccccc2)c1

>  <study system>
KAI1 promoter

>  <class>
true (1)

$$$$
>  <line notation>
O=C(COc1ccccc1C(=O)NCC(=O)c1ccccc1)Nc1ccc2c(c1)OCCO2

>  <study system>
KAI1 promoter

>  <class>
true (1)

$$$$
>  <line notation>
Cc1ccccc1NC(=O)COc1ccccc1C(=O)NCC(=O)c1ccccc1

>  <study system>
KAI1 promoter

>  <class>
true (1)

$$$$
>  <line notation>
CN(C)c1ccc(C(=O)CNC(=O)c2ccco2)cc1

>  <study system>
KAI1 promoter

>  <class>
true (1)

$$$$
>  <line notation>
O=C(CNC(=O)c1cc(Cl)cc(Cl)c1)c1ccc(Cl)cc1

>  <study system>
KAI1 promoter

>  <class>
true (1)

$$$$
>  <line notation>
CN(CCO)Cc1cccc(C(=O)NCC(=O)c2ccccc2)c1

>  <study system>
KAI1 promoter

>  <class>
true (1)

$$$$
>  <line notation>
CC(C)(C)C(=O)NCC(=O)c1ccc(Cl)cc1

>  <study system>
KAI1 promoter

>  <class>
false (0)

$$$$
>  <line notation>
CC(C)N(C)Cc1cccc(C(=O)NCC(=O)c2ccccc2)c1

>  <study system>
KAI1 promoter

>  <class>
true (1)

$$$$
>  <line notation>
O=C(CNC(=O)c1cccc(OC(F)(F)F)c1)c1ccc(Cl)cc1

>  <study system>
KAI1 promoter

>  <class>
false (0)

$$$$
>  <line notation>
CCCCC(=O)N1CCC(Oc2ccccc2C(=O)NCC(=O)c2ccccc2)CC1

>  <study system>
KAI1 promoter

>  <class>
false (0)

$$$$
>  <line notation>
CN(C)c1ccc(C(=O)CNC(=O)c2ccccc2Cl)cc1

>  <study system>
KAI1 promoter

>  <class>
true (1)

$$$$

meta.source: patent US20230150924A1
